Biological target: Histone-lysine N-methyltransferase EHMT2 (Homo sapiens)
Sequence (Q96KQ7 whole entry): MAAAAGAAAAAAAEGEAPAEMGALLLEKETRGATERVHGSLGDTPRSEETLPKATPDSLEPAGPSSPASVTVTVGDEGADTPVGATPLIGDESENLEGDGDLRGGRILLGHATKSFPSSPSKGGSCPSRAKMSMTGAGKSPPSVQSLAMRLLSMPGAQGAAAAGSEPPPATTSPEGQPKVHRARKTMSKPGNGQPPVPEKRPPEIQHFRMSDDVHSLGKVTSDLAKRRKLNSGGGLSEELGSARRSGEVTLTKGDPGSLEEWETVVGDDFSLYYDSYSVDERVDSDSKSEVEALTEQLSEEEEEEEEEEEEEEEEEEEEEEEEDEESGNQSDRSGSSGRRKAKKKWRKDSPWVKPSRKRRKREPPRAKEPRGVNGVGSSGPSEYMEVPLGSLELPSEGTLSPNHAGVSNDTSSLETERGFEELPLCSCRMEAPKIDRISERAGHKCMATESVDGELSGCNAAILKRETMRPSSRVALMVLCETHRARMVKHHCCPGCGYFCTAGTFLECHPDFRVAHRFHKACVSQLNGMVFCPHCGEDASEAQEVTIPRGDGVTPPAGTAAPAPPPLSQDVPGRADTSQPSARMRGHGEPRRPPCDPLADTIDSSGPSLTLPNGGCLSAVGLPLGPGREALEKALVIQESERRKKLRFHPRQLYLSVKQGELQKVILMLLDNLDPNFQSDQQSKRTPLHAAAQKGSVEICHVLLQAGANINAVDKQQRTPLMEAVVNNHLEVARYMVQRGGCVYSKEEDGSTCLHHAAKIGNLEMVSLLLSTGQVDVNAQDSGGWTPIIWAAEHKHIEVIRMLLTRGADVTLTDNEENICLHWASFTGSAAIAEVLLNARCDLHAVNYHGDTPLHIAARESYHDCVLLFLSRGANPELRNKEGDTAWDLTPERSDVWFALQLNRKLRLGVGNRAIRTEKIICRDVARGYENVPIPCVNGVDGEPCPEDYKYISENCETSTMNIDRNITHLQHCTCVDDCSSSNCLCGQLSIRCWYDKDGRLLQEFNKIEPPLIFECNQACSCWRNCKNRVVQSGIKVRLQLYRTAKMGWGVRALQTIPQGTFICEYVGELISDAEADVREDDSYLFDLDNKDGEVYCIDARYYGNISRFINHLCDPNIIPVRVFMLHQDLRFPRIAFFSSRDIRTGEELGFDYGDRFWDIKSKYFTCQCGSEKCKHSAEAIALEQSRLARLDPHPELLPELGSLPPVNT
Experiment: Inhibition of G9a (unknown origin) by scintillation proximity Assay
Conditions: read-out: IC50
MEASUREMENT_LABEL: log10(IC50) (log10 of the value in nM)

                                     smiles                           target_of_assay  measurement_label  data_value
0   CCOc1cc2c(cc1OCCCN1CCCC1)N=C(N)C21CCCC1  Histone-lysine N-methyltransferase EHMT2 (Homo sapiens)        log10(IC50)        2.08
1  NC1=Nc2cc(OCCCN3CCCC3)c(OCC3CC3)cc2C12CCCC2  Histone-lysine N-methyltransferase EHMT2 (Homo sapiens)        log10(IC50)        3.49
2    COc1cc2c(cc1OCCCN1CCCC1)N=C(N)C21CCCC1  Histone-lysine N-methyltransferase EHMT2 (Homo sapiens)        log10(IC50)        0.78
3  CC(C)Oc1cc2c(cc1OCCCN1CCCC1)N=C(N)C21CCCC1  Histone-lysine N-methyltransferase EHMT2 (Homo sapiens)        log10(IC50)        2.95
4  COc1cc2c(cc1OCCCN1Cc3ccccc3C1)N=C(N)C21CCCC1  Histone-lysine N-methyltransferase EHMT2 (Homo sapiens)        log10(IC50)        4.00
